Some compounds, each annotated with its measured IC50.
SYSTEM_NAME: human NPFFR1 (hNPFFR1) receptor (Homo sapiens, UniProt Q9GZQ6)
Sequence (Q9GZQ6 whole entry): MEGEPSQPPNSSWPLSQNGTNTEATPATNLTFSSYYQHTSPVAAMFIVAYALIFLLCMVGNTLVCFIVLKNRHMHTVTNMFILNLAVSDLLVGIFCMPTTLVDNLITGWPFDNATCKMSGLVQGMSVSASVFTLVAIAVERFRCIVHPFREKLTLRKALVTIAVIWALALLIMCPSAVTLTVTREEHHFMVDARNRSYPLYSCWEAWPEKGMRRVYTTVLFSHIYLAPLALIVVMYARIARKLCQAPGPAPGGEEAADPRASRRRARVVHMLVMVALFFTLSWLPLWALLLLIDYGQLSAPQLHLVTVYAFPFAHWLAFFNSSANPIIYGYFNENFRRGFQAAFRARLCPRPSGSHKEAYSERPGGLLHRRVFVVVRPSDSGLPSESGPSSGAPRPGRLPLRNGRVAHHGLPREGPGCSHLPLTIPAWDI
ASSAY_SUMMARY: Human NPFFR1 evaluation using BRET biosensors (antagonist IC50)
TEST_CONDITIONS: hNPFFR1 transiently over-expressed in HEK-293 T cells; BRET signal; stimulation by EC80 RFRP-3

Use these answered entries as a reference point.
>>> df
                                   compound  endpoint     reported
0  Cl.Nc1ccc(-c2cccc3ccsc23)c(N)n1 [Example 29]      IC50  0.1 to 1 µM
1  CCc1nc(N)ccc1-c1c(Cl)ccc2cc(F)cnc12 [Example 144]      IC50     < 0.1 µM
2  Cl.Nc1ccc(-c2csc3ccccc23)c(C2CC2)n1 [Example 13]      IC50  0.1 to 1 µM
3  CCc1nc(N)ccc1-c1cccc2ccc(-c3ccccn3)nc12.Cl [Example 119]      IC50     < 0.1 µM
4  CCc1nc(N)ccc1-c1c(F)ccc2ccc(N3CCOCC3)nc12.Cl [Example 135]      IC50     < 0.1 µM
5  CCc1nc(N)ccc1-c1cccc2cc3c(nc12)CCN(C)C3.Cl.Cl [Example 114]      IC50  0.1 to 1 µM

What measured IC50 goes with Cl.Nc1ccc(-c2cccc3cccnc23)c(F)n1 [Example 2] ? > 1 µM

Now consider CC(C)Cc1nc(N)ccc1-c1c(F)ccc2cccnc12.Cl [Example 70] . < 0.1 µM

Now consider Cl.Nc1ccc(-c2ccccc2-c2cccnc2)c(N)n1 [Example 45] . 0.1 to 1 µM

Now consider CCc1nc(N)ccc1-c1cccc2ccncc12.Cl [Example 6, 6-Ethyl-5-(8-isoquinolyl)pyridin-2-amine] . < 0.1 µM

Now consider CCc1nc(N)ccc1-c1cccc2c1OCCC2.Cl [Example 66, 5-(chroman-8-yl)-6-ethylpyridin-2-amine] . < 0.1 µM
